Task for the reader: assign each of the following compounds its reported Residual activity (%) Polymerase.
Assayed System: RNA-dependent DNA polymerase activity of HIV reverse transcriptase (Human immunodeficiency virus type 1 group M subtype B)
Construct: made in house
Assay Overview: RNA-dependent DNA polymerase activity assay of HIV reverse transcriptase
Assay type: biochemical, HIV-1
Applied Conditions: 10 μM inhibitor concentration; activity with analog / without analog x 100
Experimental: In separate, representative assays, mappicine analogs were tested for their ability to inhibit the RNA-dependent DNA polymerase activity of HIV reverse transcriptase and for their ability to inhibit the RNase H activity of HIV reverse transcriptase. […]
Answers are plain numbers, in %.

Here are 3 compounds together with their reported answers.
CCC(O)c1cc2n(c(=O)c1C)Cc1c-2nc2ccc(F)cc2c1-c1ccccc1 (racemic) [3Bα]	54
CCCCCCc1c2c(nc3ccccc13)-c1cc(C(=O)C(C)(C)C)c(C)c(=O)n1C2 [8Aβκ]	76
Cc1ccc2nc3c(c([Si](C)(C)C)c2c1)Cn1c-3cc(C(O)C(C)(C)C)c(C)c1=O (racemic) [5Cβ]	72

Consider the additional compound presented here.
Need Residual activity (%) Polymerase of COc1ccc2nc3c(c(-c4ccccc4)c2c1)Cn1c-3cc(C(O)C(C)(C)C)c(C)c1=O (stereo not shown) [3Dβ] , thanks.
85

====

Assayed System: RNA-dependent DNA polymerase activity of HIV reverse transcriptase (Human immunodeficiency virus type 1 group M subtype B, UniProt P04585)
Construct: made in house
Assay Overview: RNA-dependent DNA polymerase activity assay of HIV reverse transcriptase
Assay type: biochemical, HIV-1
Applied Conditions: 10 μM inhibitor concentration; activity with analog / without analog x 100
Property Name: Residual activity (%) Polymerase
Give bare numbers, in %.

For the 4 compounds below, give their Residual activity (%) Polymerase values.
1. CCC(=O)c1cc2n(c(=O)c1C)Cc1c-2nc2ccc(OC)cc2c1[Si](C)(C)C(C)(C)C
2. CCCCCCc1c2c(nc3ccc(F)cc13)-c1cc(C(O)CC)c(C)c(=O)n1C2 (centres unmarked)
3. COc1ccc2nc3c(c([Si](C)(C)C(C)(C)C)c2c1)Cn1c-3cc(C(O)Cc2ccccc2)c(C)c1=O (racemic)
4. CCCCCCc1c2c(nc3ccccc13)-c1cc(C(=O)CC)c(C)c(=O)n1C2

[80, 57, 49, 53]

Answer for every listed entry: what is its Residual activity (%) Polymerase? The entries follow.
1. CCCCCCc1c2c(nc3ccc(F)cc13)-c1cc(C(O)C(C)(C)C)c(C)c(=O)n1C2 (racemic)
2. CCc1c2c(nc3ccccc13)-c1cc(C(O)CC)c(C)c(=O)n1C2 (racemic)
3. CCC(=O)c1cc2n(c(=O)c1C)Cc1c-2nc2ccc(F)cc2c1[Si](C)(C)C
4. Cc1ccc2nc3c(c(-c4ccccc4)c2c1)Cn1c-3cc(C(=O)C(C)(C)C)c(C)c1=O
5. CCC(=O)c1cc2n(c(=O)c1C)Cc1c-2nc2ccccc2c1-c1ccccc1
6. COc1ccc2nc3c(c(-c4ccccc4)c2c1)Cn1c-3cc(C(=O)CCC2CCCCC2)c(C)c1=O
7. CCCCCCc1c2c(nc3ccccc13)-c1cc(C(O)C(C)(C)C)c(C)c(=O)n1C2 (centres unmarked)
8. Cc1ccc2nc3c(c([Si](C)(C)C(C)(C)C)c2c1)Cn1c-3cc(C(O)C(C)(C)C)c(C)c1=O (centres unmarked)

1: 50; 2: 100; 3: 74; 4: 63; 5: 64; 6: 81; 7: 103; 8: 67

Give me Residual activity (%) Polymerase for each of these compounds, listed below.
1. CCC(=O)c1cc2n(c(=O)c1C)Cc1c-2nc2ccc(C)cc2c1-c1ccccc1
2. CCC(O)c1cc2n(c(=O)c1C)Cc1c-2nc2ccc(OC)cc2c1-c1ccccc1 (racemic)

[71, 69]

Quick request: Residual activity (%) Polymerase for each listed item, please.
1. COc1ccc2nc3c(c([Si](C)(C)C(C)(C)C)c2c1)Cn1c-3cc(C(O)CCC2CCCCC2)c(C)c1=O (racemic)
2. CCCCCCc1c2c(nc3ccc(C)cc13)-c1cc(C(O)C(C)(C)C)c(C)c(=O)n1C2 (racemic)
3. CCCCCCc1c2c(nc3ccc(OC)cc13)-c1cc(C(O)CCC3CCCCC3)c(C)c(=O)n1C2 (racemic)
4. CCC(O)c1cc2n(c(=O)c1C)Cc1c-2nc2ccccc2c1-c1ccccc1 (racemic)
5. Cc1c(C(O)Cc2ccccc2)cc2n(c1=O)Cc1c-2nc2ccccc2c1[Si](C)(C)C(C)(C)C (racemic)
6. CCC(=O)c1cc2n(c(=O)c1C)Cc1c-2nc2ccccc2c1[Si](C)(C)C
7. CCCCCCc1c2c(nc3ccc(C)cc13)-c1cc(C(O)Cc3ccccc3)c(C)c(=O)n1C2 (racemic)
8. CCCCCCc1c2c(nc3ccccc13)-c1cc(C(=O)Cc3ccccc3)c(C)c(=O)n1C2

1: 51; 2: 111; 3: 81; 4: 90; 5: 83; 6: 91; 7: 76; 8: 59

Please give Residual activity (%) Polymerase, item by item, for the list that follows.
1. Cc1c(C(=O)C(C)(C)C)cc2n(c1=O)Cc1c-2nc2ccccc2c1[Si](C)(C)C(C)(C)C
2. CCC(O)c1cc2n(c(=O)c1C)Cc1c-2nc2ccc(C)cc2c1-c1ccccc1 (racemic)
3. CCCCCCc1c2c(nc3ccc(OC)cc13)-c1cc(C(O)CC)c(C)c(=O)n1C2 (racemic)
4. Cc1c(C(O)C(C)(C)C)cc2n(c1=O)Cc1c-2nc2ccccc2c1[Si](C)(C)C (racemic)

[79, 64, 85, 103]

Report Residual activity (%) Polymerase for every entry below.
1. CCCCCCc1c2c(nc3ccc(OC)cc13)-c1cc(C(O)C(C)(C)C)c(C)c(=O)n1C2 (racemic)
2. CCCCCCc1c2c(nc3ccccc13)-c1cc(C(O)CC)c(C)c(=O)n1C2 (racemic)
3. Cc1c(C(=O)CCC2CCCCC2)cc2n(c1=O)Cc1c-2nc2ccc(F)cc2c1-c1ccccc1
4. CCC(O)c1cc2n(c(=O)c1C)Cc1c-2nc2ccc(F)cc2c1[Si](C)(C)C(C)(C)C (racemic)

68
42
59
98

Consider the following items and state reported Residual activity (%) Polymerase for each.
1. COc1ccc2nc3c(c(-c4ccccc4)c2c1)Cn1c-3cc(C(=O)Cc2ccccc2)c(C)c1=O
2. Cc1ccc2nc3c(c(-c4ccccc4)c2c1)Cn1c-3cc(C(O)C(C)(C)C)c(C)c1=O (racemic)

73
70
